Source listed as patent US20260035382A1.

assayed-system: SAE (Homo sapiens (Human), UniProt Q9UBT2)
Sequence (Q9UBT2 whole entry): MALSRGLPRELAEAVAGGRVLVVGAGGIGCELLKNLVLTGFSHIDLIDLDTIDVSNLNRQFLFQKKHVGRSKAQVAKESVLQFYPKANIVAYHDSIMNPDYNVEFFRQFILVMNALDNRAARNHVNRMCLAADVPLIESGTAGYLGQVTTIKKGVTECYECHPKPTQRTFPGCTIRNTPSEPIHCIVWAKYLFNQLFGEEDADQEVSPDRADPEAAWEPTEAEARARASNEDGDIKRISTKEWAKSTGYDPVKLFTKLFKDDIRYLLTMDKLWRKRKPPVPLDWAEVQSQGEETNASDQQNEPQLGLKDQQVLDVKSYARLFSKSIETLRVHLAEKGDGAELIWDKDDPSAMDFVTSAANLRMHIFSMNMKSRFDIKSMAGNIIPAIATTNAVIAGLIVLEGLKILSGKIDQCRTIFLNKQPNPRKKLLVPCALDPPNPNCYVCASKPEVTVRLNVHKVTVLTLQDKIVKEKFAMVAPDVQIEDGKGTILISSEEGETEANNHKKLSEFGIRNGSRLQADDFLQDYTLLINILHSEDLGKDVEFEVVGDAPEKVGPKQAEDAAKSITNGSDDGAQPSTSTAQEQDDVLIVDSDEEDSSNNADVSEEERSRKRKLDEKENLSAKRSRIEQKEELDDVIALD
Sequence (Q9UBE0 whole entry partner): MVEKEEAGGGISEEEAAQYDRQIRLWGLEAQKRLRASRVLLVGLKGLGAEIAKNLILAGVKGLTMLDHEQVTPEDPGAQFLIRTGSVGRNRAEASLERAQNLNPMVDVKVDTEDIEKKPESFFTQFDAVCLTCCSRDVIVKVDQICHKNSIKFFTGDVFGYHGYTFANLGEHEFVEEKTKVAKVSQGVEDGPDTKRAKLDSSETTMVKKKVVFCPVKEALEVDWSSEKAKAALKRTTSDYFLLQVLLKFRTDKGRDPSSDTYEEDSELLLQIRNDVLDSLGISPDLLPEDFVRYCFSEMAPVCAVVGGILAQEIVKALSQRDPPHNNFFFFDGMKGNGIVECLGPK
assay-remarks: In vitro inhibitory activity assay against SAE (SUMO-2/3 immunofluorescence in HCT116 cells)
Format: cell-based
assay-context: 6 h incubation, class symbols, read-out: SUMO IF IC50
pIC50: −log10 of the molar value.
endpoint-label: pIC50

Worked set:
// query I would be grateful if you could share the reported pIC50 for "NS(=O)(=O)OC[C@H]1C[C@@H](Nc2ncncc2C(=O)c2cc3c(s2)CCC[C@]32NCCc3cc(Cl)c(F)cc32)C[C@@H]1O" .
// result ≥ 7.30

// query I am curious: what pIC50 value has been reported for NS(=O)(=O)OC[C@H]1C[C@@H](Nc2ncncc2C(=O)c2cc3c(s2)CSCC32NCCc3ccc(F)cc32)C[C@@H]1O (stereo partly drawn) ?
// result ≥ 7.30

I need pIC50 for every entry listed below, if you could help.
1. NS(=O)(=O)OC[C@H]1C[C@@H](Nc2ncncc2C(=O)c2cc3c(s2)CCC32NCCc3cc(Cl)ncc32)C[C@@H]1O (stereo partly drawn)
2. [2H]C1([2H])Cc2ccc(Cl)cc2C2(CCCc3sc(C(=O)c4cncnc4N[C@@H]4C[C@H](COS(N)(=O)=O)[C@@H](O)C4)cc32)N1 (stereo partly drawn)
3. NS(=O)(=O)OC[C@H]1C[C@@H](Nc2ncncc2C(=O)c2cc3c(s2)COCC32NCCc3ccc(F)cc32)C[C@@H]1O (stereo partly drawn)
4. CC1=C[C@@]2(NCCc3ccc(Cl)cc32)c2cc(C(=O)c3cncnc3N[C@@H]3C[C@H](COS(N)(=O)=O)[C@@H](O)C3)sc21
5. NS(=O)(=O)OC[C@H]1C[C@@H](Nc2ncncc2C(=O)c2cc3c(s2)CC2(CC2)CC32NCCc3ccc(Cl)cc32)C[C@@H]1O (stereo partly drawn)
6. N#Cc1ccc2c(c1)[C@]1(CCc3sc(C(=O)c4cncnc4N[C@@H]4C[C@H](COS(N)(=O)=O)[C@@H](O)C4)cc31)NCC2

// result
1. 6.70 to 7.30
2. 6.70 to 7.30
3. 6.70 to 7.30
4. < 6.70
5. ≥ 7.30
6. < 6.70
